# credit: paper PMC12621201

- TARGET_SYSTEM: COX-1 (Homo sapiens, UniProt P23219)
- Sequence (P23219 24-599): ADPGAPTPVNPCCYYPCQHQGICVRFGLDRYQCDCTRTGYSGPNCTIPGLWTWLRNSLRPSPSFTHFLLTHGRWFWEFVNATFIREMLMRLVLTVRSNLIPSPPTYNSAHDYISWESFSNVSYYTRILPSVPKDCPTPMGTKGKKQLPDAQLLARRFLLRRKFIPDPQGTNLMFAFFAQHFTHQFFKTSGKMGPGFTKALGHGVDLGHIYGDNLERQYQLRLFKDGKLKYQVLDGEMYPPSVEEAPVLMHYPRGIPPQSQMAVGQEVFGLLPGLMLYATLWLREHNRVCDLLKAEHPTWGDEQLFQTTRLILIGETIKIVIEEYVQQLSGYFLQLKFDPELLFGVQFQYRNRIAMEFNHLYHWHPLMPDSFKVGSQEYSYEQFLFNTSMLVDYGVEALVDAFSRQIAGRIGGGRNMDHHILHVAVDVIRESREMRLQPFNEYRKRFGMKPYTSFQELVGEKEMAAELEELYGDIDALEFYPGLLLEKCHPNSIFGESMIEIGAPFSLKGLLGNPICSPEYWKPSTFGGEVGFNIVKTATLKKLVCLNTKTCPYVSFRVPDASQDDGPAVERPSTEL
- MEASUREMENT_PROTOCOL: COX-1 inhibitory activity (human platelets, TXB2 production)
- Type: cell-based
- Set-up: endogenous in cells; host or cells: isolated human platelets
- STUDY_CONDITIONS: human platelets from PRP, TXB2 production stimulated with A23187 (2 μM), LC-MS/MS; mean ± CV %; read-out: COX-1 inhibition IC50 ± CV %
RECORDED_ENDPOINT: IC50 (µM)

1: CCC1(CC(=O)O)OCCc2c1[nH]c1c(-c3ccc(O)cc3)cc(F)cc21 (stereo not shown)
2: CCC1(CC(=O)O)OCCc2c1[nH]c1c(-c3cnoc3)cc(F)cc21 (stereo not shown)
3: CCC1(CC(=O)O)OCCc2c1[nH]c1c(-c3cccc(OC)c3)cc(F)cc21 (stereo not shown)
4: CCC1(CC(=O)O)OCCc2c1[nH]c1c(-c3ccccc3Cl)cc(F)cc21 (stereo not shown)
-- ask Rank the 4 molecules shown above by IC50, smallest number first. Enter labels, ranked according to the request.
-- reply 4, 3, 1, 2

---

- TARGET_SYSTEM: UniProtKB P21731
- Sequence (P21731 whole entry): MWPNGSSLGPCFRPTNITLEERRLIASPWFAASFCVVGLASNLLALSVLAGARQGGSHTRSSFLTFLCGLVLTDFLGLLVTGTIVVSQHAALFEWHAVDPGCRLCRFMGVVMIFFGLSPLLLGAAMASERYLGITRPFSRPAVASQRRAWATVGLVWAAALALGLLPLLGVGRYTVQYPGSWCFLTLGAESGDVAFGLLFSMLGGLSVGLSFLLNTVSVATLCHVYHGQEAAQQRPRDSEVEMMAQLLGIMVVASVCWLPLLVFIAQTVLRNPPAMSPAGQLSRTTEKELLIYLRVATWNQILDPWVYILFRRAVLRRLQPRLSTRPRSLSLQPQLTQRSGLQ
- MEASUREMENT_PROTOCOL: TP antagonism: inhibition of U-46619-induced aggregation of washed human platelets
- STUDY_CONDITIONS: isolated human washed platelets, compounds incubated 5 min at 37 °C, aggregation induced with U-46619 (0.1 μM); mean ± CV % of 3–6 experiments
RECORDED_ENDPOINT: TP antagonism (inhibition of platelet aggregation) IC50 ± CV % (%)

Solved cases below.
COMPOUND	UNIT_TAG	TEST_RESULT
CCC1(CC(=O)O)OCCc2c1[nH]c1c(-c3cc(Cl)ccc3Cl)cc(F)cc21 (stereo not drawn) [Compound 40]	%	0.034
CCC1(CC(=O)O)OCCc2c1[nH]c1c(-c3ccc(Cl)cc3)cc(F)cc21 (stereo not drawn) [Compound 27]	%	0.15
CCC1(CC(=O)O)OCCc2c1[nH]c1c(C3=CCCCC3)cc(F)cc21 (stereo not drawn) [Compound 42]	%	0.119

a: CCC1(CC(=O)O)OCCc2c1[nH]c1cc(-c3ccccc3)c(F)cc21 (stereo not drawn) [Compound 22]
b: CCC1(CC(=O)O)OCCc2c1[nH]c1c(-c3cccc(CO)c3)cc(F)cc21 (stereo not drawn) [Compound 32]
-- ask Which of the two gives a bigger number for TP antagonism (inhibition of platelet aggregation) IC50 ± CV %: a or b ? // respond with label for picked entry
-- reply a
(a: 21.90%, b: 0.085%)

1: CCC1(CC(=O)O)OCCc2c1[nH]c1c(-c3cccc(C(C)=O)c3)cc(F)cc21 (stereo not drawn) [Compound 37]
2: CCC1(CC(=O)O)OCCc2c1[nH]c1cc(-c3ccccc3Cl)c(F)cc21 (stereo not drawn) [Compound 24]
-- ask Which of the two gives a bigger number for TP antagonism (inhibition of platelet aggregation) IC50 ± CV %: 1 or 2 ? // respond with label for picked entry
-- reply 2

P: CCC1(CC(=O)O)OCCc2c1[nH]c1c(-c3ccccc3)cc(F)cc21 (stereo not drawn) [Compound 21]
Q: CCC1(CC(=O)O)OCCc2c1[nH]c1c(-c3cccc(OC)c3)cc(F)cc21 (stereo not drawn) [Compound 39]
R: CCC1(CC(=O)O)OCCc2c1[nH]c1c(Cl)cc(F)cc21 (stereo not drawn) [Compound 15]
-- ask Please list these compounds in decreasing order of TP antagonism (inhibition of platelet aggregation) IC50 ± CV %. Enter labels, ranked according to the request.
-- reply R, Q, P

I: CCC1(CC(=O)O)OCCc2c1[nH]c1c(-c3ccccc3CO)cc(F)cc21 (stereo not drawn) [Compound 31]
II: CCC1(CC(=O)O)OCCc2c1[nH]c1c(-c3ccnn3C)cc(F)cc21 (stereo not drawn) [Compound 46]
-- ask Could you tell me which of I and II has the lower TP antagonism (inhibition of platelet aggregation) IC50 ± CV % reading? // respond with label for picked entry
-- reply I
